Reference source: PubChem BioAssay AID1963867

System: KRAS-mutant PDC tumor spheroid with HUVEC/MSC, viability
PROTOCOL SUMMARY: Anticancer human tumor 327498-153-R-J2-PDC patient-derived uterine carcinosarcoma cell line growth inhibition [KRAS2]
CONDITION SET: second compound 0.316 µM; first compound 0.00316 µM; stronger effect = lower value
Excerpt: Multicellular complex tumor spheroid response to RAS pathway inhibitors in combination with a targeted agents in patient-derived cell lines with oncogenic KRAS variants from multiple cancer types A high-throughput screen of multi-cell type tumor spheroids was designed to identify active combinations of targeted small molecules and KRAS pathway inhibitors. […] Compounds. […] If the clinical Cmax for an agent had not been determined, the highest concentration tested was 10 microM. […]
EXPERIMENTAL READOUT: viability, T/C (%)
Response body: numeric value in %, unit text excluded.

Illustrative cases are given below, each with its answer.
COMPOUND: Cn1ncnc1[C@H]1c2n[nH]c(=O)c3cc(F)cc(c23)N[C@@H]1c1ccc(F)cc1 + CNCc1ccccc1-c1csc(C(C)Nc2nc(C)nc3cc(OC)c(OC)cc23)c1
EXPERIMENTAL READOUT: viability, T/C
REPORTED: 61.7

COMPOUND: CC(=O)Nc1cccc(-n2c(=O)n(C3CC3)c(=O)c3c(Nc4ccc(I)cc4F)n(C)c(=O)c(C)c32)c1 + COc1cc2nc(C)nc(NC(C)c3cc(N)cc(C(F)(F)F)c3)c2cc1OC1CCOC1
EXPERIMENTAL READOUT: viability, T/C
REPORTED: 50.9

COMPOUND: CN(C)C/C=C/C(=O)Nc1cc2c(Nc3ccc(F)c(Cl)c3)ncnc2cc1O[C@H]1CCOC1 + CNCc1ccccc1-c1csc(C(C)Nc2nc(C)nc3cc(OC)c(OC)cc23)c1
EXPERIMENTAL READOUT: viability, T/C
REPORTED: 73.9

Shift focus to the following entry.
Request: Name the reported viability, T/C value associated with the compound Cn1ncnc1[C@H]1c2n[nH]c(=O)c3cc(F)cc(c23)N[C@@H]1c1ccc(F)cc1 + CC1OCC2(CCN(c3cnc(Sc4ccnc(N)c4Cl)c(N)n3)CC2)C1N
Result: 40.7

* * *

Test system: KRAS-mutant PDC tumor spheroid with HUVEC/MSC, viability
PROTOCOL SUMMARY: Anticancer human tumor 327498-153-R-J2-PDC cell line growth inhibition [KRAS2];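 note: spheroids exposed to agents for seven days before reading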;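 for viability, T/C: 100% = DMSO vehicle wells so lower means fewer viable cells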
CONDITION SET: second compound 1 µM; first compound 0.001 µM; stronger effect = lower value
Documented viability, T/C across a set of compounds
Response body: numeric value in %, unit text excluded.

Illustrative cases are given below, each with its answer.
COMPOUND: CN(C)C/C=C/C(=O)Nc1cc2c(Nc3ccc(F)c(Cl)c3)ncnc2cc1O[C@H]1CCOC1 + COc1cc2nc(C)nc(NC(C)c3cc(N)cc(C(F)(F)F)c3)c2cc1OC1CCOC1
viability, T/C / %: 85.1
//
COMPOUND: CN(C)C/C=C/C(=O)Nc1cc2c(Nc3ccc(F)c(Cl)c3)ncnc2cc1O[C@H]1CCOC1 + CNCc1ccccc1-c1csc(C(C)Nc2nc(C)nc3cc(OC)c(OC)cc23)c1
viability, T/C / %: 67.9

Request: KRAS-mutant PDC tumor spheroid with HUVEC/MSC, viability / viability, T/C / CC(=O)Nc1cccc(-n2c(=O)n(C3CC3)c(=O)c3c(Nc4ccc(I)cc4F)n(C)c(=O)c(C)c32)c1 + C=CC(=O)N1CCN(c2nc(OCC3CCCN3C)nc3c2CCN(c2cccc4cccc(C)c24)C3)CC1CC#N : value?
Result: 45.7

* * *

System: KRAS-mutant PDC tumor spheroid with HUVEC/MSC, viability
PROTOCOL SUMMARY: Anticancer human tumor 327498-153-R-J2-PDC cell line growth inhibition [KRAS2];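 note: spheroids exposed to agents for seven days before reading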
CONDITION SET: curve of first compound; second compound 3.16 µM
EXPERIMENTAL READOUT: IC50

COMPOUND: CCNC(=O)CC1N=C(c2ccc(Cl)cc2)c2cc(OC)ccc2-n2c(C)nnc21 (stereo not drawn) + C=CC(=O)N1CCN(c2nc(OCC3CCCN3C)nc3c2CCN(c2cccc4cccc(C)c24)C3)CC1CC#N
IC50: < 31.6 nM

Request: Name the reported IC50 value associated with the compound CC(=O)Nc1cccc(-n2c(=O)n(C3CC3)c(=O)c3c(Nc4ccc(I)cc4F)n(C)c(=O)c(C)c32)c1 + C=CC(=O)N1CCN(c2nc(OCC3CCCN3C)nc3c2CCN(c2cccc4cccc(C)c24)C3)CC1CC#N
Result: < 0.1 nM

Request: Name the reported IC50 value associated with the compound COc1cc2nccc(Oc3ccc(NC(=O)C4(C(=O)Nc5ccc(F)cc5)CC4)cc3)c2cc1OC + C=CC(=O)N1CCN(c2nc(OCC3CCCN3C)nc3c2CCN(c2cccc4cccc(C)c24)C3)CC1CC#N
Result: < 31.6 nM

* * *

Documented pIC50 across a set of compounds
Test system: KRAS-mutant PDC tumor spheroid with HUVEC/MSC, viability
PROTOCOL SUMMARY: Anticancer human tumor 327498-153-R-J2-PDC cell line growth inhibition [KRAS2];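 note: spheroids exposed to agents for seven days before reading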
CONDITION SET: curve of first compound; second compound 3.16 µM
Notebook: values listed as pIC50 are -log10 of the concentration (mol/L).

COMPOUND: CN(C)C/C=C/C(=O)Nc1cc2c(Nc3ccc(F)c(Cl)c3)ncnc2cc1O[C@H]1CCOC1 + COc1cc2nc(C)nc(NC(C)c3cc(N)cc(C(F)(F)F)c3)c2cc1OC1CCOC1
pIC50: 7.79

Shift focus to the following entry.
Request: Name the reported pIC50 value associated with the compound CN(C)C/C=C/C(=O)Nc1cc2c(Nc3ccc(F)c(Cl)c3)ncnc2cc1O[C@H]1CCOC1 + CNCc1ccccc1-c1csc(C(C)Nc2nc(C)nc3cc(OC)c(OC)cc23)c1
Result: 8.76

* * *

Tested on: KRAS-mutant PDC tumor spheroid with HUVEC/MSC, viability
PROTOCOL SUMMARY: Anticancer human tumor 327498-153-R-J2-PDC cell line growth inhibition [KRAS2];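 note: spheroids exposed to agents for seven days before reading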;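 for viability, T/C: 100% = DMSO vehicle wells so lower means fewer viable cells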
CONDITION SET: second compound 1 µM; first compound 3.16 µM; stronger effect = lower value
EXPERIMENTAL READOUT: viability, T/C (%)
Response body: numeric value in %, unit text excluded.

Illustrative cases are given below, each with its answer.
COMPOUND: CC1OCC2(CCN(c3cnc(Sc4ccnc(N)c4Cl)c(N)n3)CC2)C1N (stereo not drawn) + COc1cc2nc(C)nc(NC(C)c3cc(N)cc(C(F)(F)F)c3)c2cc1OC1CCOC1
TESTED SYSTEM: KRAS-mutant PDC tumor spheroid with HUVEC/MSC, viability
EXPERIMENTAL READOUT: viability, T/C
UNIT ANNOTATION: %
REPORTED: 27.8
//
COMPOUND: O=C(c1cc(Cc2n[nH]c(=O)c3ccccc23)ccc1F)N1CCN(C(=O)C2CC2)CC1 + C=CC(=O)N1CCN(c2nc(OCC3CCCN3C)nc3c2CCN(c2cccc4cccc(C)c24)C3)CC1CC#N
TESTED SYSTEM: KRAS-mutant PDC tumor spheroid with HUVEC/MSC, viability
EXPERIMENTAL READOUT: viability, T/C
UNIT ANNOTATION: %
REPORTED: 19.2

Shift focus to the following entry.
Request: Name the reported viability, T/C value associated with the compound CCNC(=O)CC1N=C(c2ccc(Cl)cc2)c2cc(OC)ccc2-n2c(C)nnc21 (stereo not drawn) + C=CC(=O)N1CCN(c2nc(OCC3CCCN3C)nc3c2CCN(c2cccc4cccc(C)c24)C3)CC1CC#N
Result: 25.1

* * *

Tested on: KRAS-mutant PDC tumor spheroid with HUVEC/MSC, viability
PROTOCOL SUMMARY: Anticancer human tumor 327498-153-R-J2-PDC cell line growth inhibition [KRAS2];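 note: spheroids exposed to agents for seven days before reading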;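 for viability, T/C: 100% = DMSO vehicle wells so lower means fewer viable cells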
CONDITION SET: second compound 0.316 µM; first compound 0.1 µM; stronger effect = lower value
Documented viability, T/C across a set of compounds
Response body: numeric value in %, unit text excluded.

Illustrative cases are given below, each with its answer.
COMPOUND: CC1OCC2(CCN(c3cnc(Sc4ccnc(N)c4Cl)c(N)n3)CC2)C1N (stereo not given) + COc1cc2nc(C)nc(NC(C)c3cc(N)cc(C(F)(F)F)c3)c2cc1OC1CCOC1
REPORTED: 47.5
--
COMPOUND: COC(=O)c1ccc2c(C(=Nc3ccc(N(C)C(=O)CN4CCN(C)CC4)cc3)c3ccccc3)c(O)[nH]c2c1 + COc1cc2nc(C)nc(NC(C)c3cc(N)cc(C(F)(F)F)c3)c2cc1OC1CCOC1
REPORTED: 65.1
--
COMPOUND: CC(C)NCC(C(=O)N1CCN(c2ncnc3c2C(C)CC3O)CC1)c1ccc(Cl)cc1 (stereo not given) + C=CC(=O)N1CCN(c2nc(=O)n(-c3c(C)ccnc3C(C)C)c3nc(-c4c(O)cccc4F)c(F)cc23)C(C)C1
REPORTED: 32.4
--
COMPOUND: CC(C)n1nc(-c2ccc3oc(N)nc3c2)c2c(N)ncnc21 + COc1cc2nc(C)nc(NC(C)c3cc(N)cc(C(F)(F)F)c3)c2cc1OC1CCOC1
REPORTED: 6.67

Shift focus to the following entry.
Request: Name the reported viability, T/C value associated with the compound O=C(c1cc(Cc2n[nH]c(=O)c3ccccc23)ccc1F)N1CCN(C(=O)C2CC2)CC1 + C=CC(=O)N1CCN(c2nc(=O)n(-c3c(C)ccnc3C(C)C)c3nc(-c4c(O)cccc4F)c(F)cc23)C(C)C1
Result: 59.4
